Answer each item with its documented Raw Signal.
assayed_system: Human IP6K1 (Homo sapiens, UniProt Q92551)
Construct: GST (N, cleaved yes); made in house; host or cells: C43 E. coli, pGEX-6P-2
Sequence (Q92551 whole entry): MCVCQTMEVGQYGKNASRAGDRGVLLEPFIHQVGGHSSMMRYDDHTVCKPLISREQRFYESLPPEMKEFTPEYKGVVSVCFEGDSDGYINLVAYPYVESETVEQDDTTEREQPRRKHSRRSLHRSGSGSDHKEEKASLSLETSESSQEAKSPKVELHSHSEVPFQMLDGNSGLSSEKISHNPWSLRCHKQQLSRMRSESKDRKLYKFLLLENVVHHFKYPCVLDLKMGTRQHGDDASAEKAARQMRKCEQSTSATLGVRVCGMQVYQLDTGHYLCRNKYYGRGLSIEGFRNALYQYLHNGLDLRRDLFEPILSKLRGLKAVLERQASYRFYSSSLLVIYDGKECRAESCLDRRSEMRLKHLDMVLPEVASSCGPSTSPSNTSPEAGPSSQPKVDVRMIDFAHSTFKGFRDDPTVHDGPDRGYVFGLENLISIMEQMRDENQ
protocol_text: IP6K1 high-throughput screen of the Sigma LOPAC (ADP-Glo Max, single point);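 also: final compound concentration 10µM in 5% DMSO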
Format: biochemical
run_conditions: LOPAC single-point screen, ADP-Glo Max luminescence raw signal per well
Counter-ions that a name gives are not always drawn.
Answers are plain numbers.

Please review the entries below; each comes with its answer.
1) Clc1ccc2c(c1)C(N1CCNCC1)=Nc1ccccc1O2; 50961
2) NC[C@H](O)c1ccc(O)c(O)c1.O=C(O)C(O)C(O)C(=O)O [L(-)-Norepinephrine bitartrate]; 29897
3) N#C/C(=C\c1ccc(O)c(O)c1)C(=O)c1ccc(O)c(O)c1; 38614
4) NCCc1ccc(O)c(O)c1 [Dopamine hydrochloride]; 44704
5) CN1C[C@H](CNC(=O)OCc2ccccc2)C[C@@H]2c3cccc4c3c(cn4C)C[C@H]21; 65696
6) COc1cc(C(O)C(=O)O)ccc1O (racemic) [(±)-Vanillylmandelic acid]; 52849

Please supply Raw Signal for each of the following items, keeping them in order.
1. COc1ccccc1N1CCN(CCN2C(=O)CC3(CCCC3)CC2=O)CC1.Cl.Cl [BMY 7378 dihydrochloride]
2. C[C@]12CC[C@@H]3c4ccc(O)cc4CC[C@H]3[C@@H]1CC[C@@H]2O

stdout:
52642
51790

----------
assayed_system: Human IP6K1 (Homo sapiens)
Construct: GST (N, cleaved yes); made in house; host or cells: C43 E. coli, pGEX-6P-2
protocol_text: IP6K1 high-throughput screen of the Sigma LOPAC (ADP-Glo Max, single point);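 also: final compound concentration 10µM in 5% DMSO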
Assay type: biochemical
run_conditions: LOPAC single-point screen; Z-score relative to plate average and StDev
Structures can show the parent of a compound that is named as a salt.
measured_quantity: Z-score
Give bare numbers.

1) Cc1c2ccncc2c(C)c2c1[nH]c1ccccc12; -0.8906
2) O=C(CCCN1CCC2(CC1)C(=O)NCN2c1ccccc1)c1ccc(F)cc1 [Spiperone hydrochloride]; -0.6613
3) C[C@](N)(Cc1ccc(O)c(O)c1)C(=O)O; -5.095

Batch: Z-score for all items listed.
1. O=C1Nc2ccc(I)cc2/C1=C/c1cc(Br)c(O)c(Br)c1
2. Cc1ccccc1N1CCN(S(=O)(=O)CC23CCC(CC2NC(=O)C(N)CCS(C)(=O)=O)C3(C)C)CC1 (stereo not drawn)
3. CC(=O)OCC1=C(C(=O)O)N2C(=O)[C@@H](NC(=O)CSc3ccncc3)[C@H]2SC1 [Cephapirin sodium]
4. C=CCN1CC[C@]2(C)c3cc(O)ccc3C[C@H]1[C@H]2C.Cl [(+)-N-Allylnormetazocine hydrochloride]
5. COC(=O)C1=C(C)NC(C)=C([N+](=O)[O-])C1c1ccccc1C(F)(F)F (racemic) [(±)-Bay K 8644]
6. CC(N)Cc1c[nH]c2ccc(OCc3cccs3)cc12 (stereo not drawn)

stdout:
1: -0.7405; 2: -0.6829; 3: -0.7789; 4: -0.6649; 5: -0.8912; 6: -0.4845

Could you report Z-score for every entry in the following list?
1. CC(C)(C)[C@]1(O)CCN2C[C@H]3c4ccccc4CCc4cccc(c43)[C@@H]2C1 [(+)-Butaclamol hydrochloride]
2. N#CC(C#N)=Cc1cc(O)c(O)c(O)c1
3. c1ccc(C2CC2)c(OCC2=NCCN2)c1 [Cirazoline hydrochloride]
4. O=c1c(O)c(-c2ccc(O)c(O)c2)oc2cc(O)cc(O)c12 [Quercetin dihydrate]
5. CN(N=O)c1ccc(O)c(O)c1
6. N[C@@H](Cc1ccc(O)c(I)c1)C(=O)O
7. CC(N)C(O)c1ccc(O)c(O)c1 (single isomer, unassigned; (-)) [(-)-alpha-Methylnorepinephrine]

stdout:
-0.6001
-1.788
-1.318
-0.6753
-3.722
-0.6996
-1.996

Provide Z-score for all items below, preserving their order.
1. CN1CCN(C2=Nc3cc(Cl)ccc3Nc3ccccc32)CC1
2. O=c1oc(Cl)c(Cl)c2ccccc12

stdout:
[-0.5439, -0.5195]
